Below: a set of entries, each annotated with reported hepatocyte CLint.
- ASSAY_NAME: Rat Hepatocyte Stability (Test E)
- Type: in vitro ADME
- ASSAY_CONDITIONS: rat, hepatocytes, geometric mean if run multiple times
The figure you give is taken to be in µL/min/1e6 cells; do not add the unit.

Solved entries (count: 2):
COc1cc(F)c(O[C@H]2CC[C@@H](C(=O)O)CC2)cc1C(=O)N[C@@H]1[C@H]2CC[C@H](C2)[C@@H]1C(=O)Nc1ccc(C)c(C(F)(F)F)c1 43
COc1cc(F)c(O[C@H]2CC[C@@H](C(=O)O)CC2)cc1C(=O)N[C@@H]1CCC[C@@H]1C(=O)Nc1ccc(F)c(C(F)(F)F)c1 19

query: Recorded hepatocyte CLint for COc1cc(F)c(O[C@H]2CC[C@@](C)(C(=O)O)CC2)cc1C(=O)N[C@@H]1CCC[C@@H]1C(=O)N[C@@H](C)C(C)C , please?
result: 16

---

- ASSAY_NAME: Human Plasma Protein Binding (Test B)
- Assay type: in vitro ADME
- ASSAY_CONDITIONS: fraction unbound (fu)
Each entry gets f if its Test B Human Plasma Protein Binding (% free) stays under 1 % free, and t if its Test B Human Plasma Protein Binding (% free) is 1 % free or above.

COMPOUND	ASSIGNED_LABEL
COc1cc(F)c(O[C@H]2CC[C@@H](C(=O)O)CC2)cc1C(=O)N[C@@H]1[C@H]2CC[C@H](C2)[C@@H]1C(=O)Nc1ccc(C)c(C(F)(F)F)c1 [Example 192]	f
COc1cc(F)c(O[C@H]2CC[C@@H](C(=O)O)CC2)cc1C(=O)N[C@@H]1[C@H]2CC[C@H](C2)[C@@H]1C(=O)Nc1ccc(Cl)c(C(F)(F)F)c1 [Example 186]	f
COc1cc(F)c(-c2ccc(C[C@H](C(=O)O)N(C)C)cc2)cc1C(=O)N[C@@H]1[C@H]2CC[C@H](C2)[C@@H]1C(=O)Nc1cccc(S(=O)(=O)C(F)(F)F)c1 [Example 292]	t
COc1cc(C#N)c(O[C@H]2CC[C@@](C)(C(=O)O)CC2)cc1C(=O)N[C@@H]1[C@H]2CC[C@H](C2)[C@@H]1C(=O)NCC1(C#N)CCC1 [Example 93]	t
COc1cc(F)c(-c2ccc(C(=O)O)cc2)cc1C(=O)N[C@@H]1[C@H]2CC[C@H](C2)[C@@H]1C(=O)Nc1cccc(S(=O)(=O)C(F)(F)F)c1 [Example 250]	f

query: I'd appreciate it if you could say whether CC1(CNC(=O)[C@H]2[C@H]3CC[C@H](C3)[C@H]2NC(=O)c2cc(O[C@H]3CC[C@@](C)(C(=O)O)CC3)c(C#N)cc2F)CCC1 [Example 413] has Test B Human Plasma Protein Binding (% free) at least equal to 1 % free.
result: t

query: I'd appreciate it if you could say whether COc1cc(F)c(O[C@H]2CC[C@@H](C(=O)O)CC2)cc1C(=O)N[C@@H]1[C@H]2CC[C@H](C2)[C@@H]1C(=O)Nc1nccc(C(F)(F)F)n1 [Example 32] has Test B Human Plasma Protein Binding (% free) at least equal to 1 % free.
result: t

query: I'd appreciate it if you could say whether COc1cc(C#N)c(O[C@H]2CC[C@@](C)(C(=O)O)CC2)cc1C(=O)NC1C2C=CC(CC2)C1C(=O)NCC1(C)CCC1 (single isomer, unassigned) [Example 540] has Test B Human Plasma Protein Binding (% free) at least equal to 1 % free.
result: t

query: I'd appreciate it if you could say whether COc1cc(F)c(-c2cccc(C(=O)O)c2)cc1C(=O)N[C@@H]1[C@H](C(=O)Nc2cccc(S(=O)(=O)C(F)(F)F)c2)[C@H]2C=C[C@@H]1C2 (single isomer, unassigned) [Example 555] has Test B Human Plasma Protein Binding (% free) at least equal to 1 % free.
result: f

query: I'd appreciate it if you could say whether COc1cc(F)c(O[C@H]2CC[C@@H](C(=O)O)CC2)cc1C(=O)N[C@@H]1[C@H]2CC[C@H](C2)[C@@H]1C(=O)Nc1cccc(OC(F)(F)F)c1F [Example 18] has Test B Human Plasma Protein Binding (% free) at least equal to 1 % free.
result: t

query: I'd appreciate it if you could say whether COc1cc(F)c(O[C@H]2CC[C@@H](C(=O)O)CC2)cc1C(=O)N[C@@H]1[C@H]2CC[C@H](C2)[C@@H]1C(=O)NCC(C)(C)C [Example 180] has Test B Human Plasma Protein Binding (% free) at least equal to 1 % free.
result: t

query: I'd appreciate it if you could say whether COc1cc(F)c(O[C@H]2CC[C@@](C)(C(=O)O)CC2)cc1C(=O)N[C@@H]1[C@H]2CC[C@H](C2)[C@@H]1C(=O)NCC(C)(C)C(F)(F)F [Example 38] has Test B Human Plasma Protein Binding (% free) at least equal to 1 % free.
result: t

query: I'd appreciate it if you could say whether COc1cc(F)c(-c2ccc(/C=C/C(=O)O)nc2)cc1C(=O)N[C@@H]1[C@H]2CC[C@H](C2)[C@@H]1C(=O)Nc1cccc(S(=O)(=O)C(F)(F)F)c1 [Example 260] has Test B Human Plasma Protein Binding (% free) at least equal to 1 % free.
result: f

query: I'd appreciate it if you could say whether COc1cc(C#N)c(O[C@H]2CC[C@@](C)(C(=O)O)CC2)cc1C(=O)N[C@@H]1[C@@H]2CC[C@@H](C2)[C@@H]1C(=O)NCC(C)(C)C(F)(F)F [Example 502] has Test B Human Plasma Protein Binding (% free) at least equal to 1 % free.
result: t

query: I'd appreciate it if you could say whether COc1c(F)cc(O[C@H]2CC[C@@](C)(C(=O)O)CC2)cc1C(=O)N[C@@H]1[C@H]2CC[C@H](C2)[C@@H]1C(=O)NCC1(C)CCC1 [Example 374] has Test B Human Plasma Protein Binding (% free) at least equal to 1 % free.
result: t

query: I'd appreciate it if you could say whether COc1cc(F)c(O[C@H]2CC[C@@H](C(=O)O)CC2)cc1C(=O)N[C@@H]1[C@H]2CC[C@H](C2)[C@@H]1C(=O)Nc1ccc(C#N)c(Br)c1 [Example 27] has Test B Human Plasma Protein Binding (% free) at least equal to 1 % free.
result: f

query: I'd appreciate it if you could say whether COc1cc(F)c(O[C@H]2CC[C@@H](C(=O)O)CC2)cc1C(=O)N[C@@H]1[C@H]2CC[C@H](C2)[C@@H]1C(=O)Nc1cccc(S(F)(F)(F)(F)F)c1 [Example 182] has Test B Human Plasma Protein Binding (% free) at least equal to 1 % free.
result: f

query: I'd appreciate it if you could say whether COc1cc(F)c(-c2ccc(C(=O)O)cc2)cc1C(=O)N[C@H]1[C@@H](C(=O)Nc2cccc(S(=O)(=O)C(F)(F)F)c2)[C@@H]2C=C[C@H]1C2 (racemic) [Example 224] has Test B Human Plasma Protein Binding (% free) at least equal to 1 % free.
result: f

query: I'd appreciate it if you could say whether COc1cc(F)c(O[C@H]2CC[C@@](C)(C(=O)O)CC2)cc1C(=O)N[C@@H]1[C@H]2CC[C@H](C2)[C@@H]1C(=O)NCC(C)(C)C#N [Example 47] has Test B Human Plasma Protein Binding (% free) at least equal to 1 % free.
result: t

query: I'd appreciate it if you could say whether COc1cc(F)c(O[C@H]2CC[C@@](C)(C(=O)O)CC2)cc1C(=O)Nc1cnccc1C(=O)NCC1(C)CCC1 [Example 150] has Test B Human Plasma Protein Binding (% free) at least equal to 1 % free.
result: t

query: I'd appreciate it if you could say whether COc1cc(F)c(O[C@H]2CC[C@@](C)(C(=O)O)CC2)cc1C(=O)Nc1ccccc1C(=O)NCC1(C)CCC1 [Example 143] has Test B Human Plasma Protein Binding (% free) at least equal to 1 % free.
result: f

query: I'd appreciate it if you could say whether COc1cc(F)c(O[C@H]2CC[C@@](C)(C(=O)O)CC2)cc1C(=O)N[C@@H]1CCC[C@]1(F)C(=O)Nc1cccc(S(=O)(=O)C(F)(F)F)c1 [Example 355] has Test B Human Plasma Protein Binding (% free) at least equal to 1 % free.
result: t
